System: SNB-75
Assay: NCI tumour cell line growth inhibition, 48 h
The source made the active and inactive calls. Cut-off read from the data, not from the text of the source: active = GI50 up to about 1.1 µM and inactive = higher.
Possible outcomes: 1 (yes) (active), 0 (no) (inactive)

# compound, category
records = [
    ("Nc1ncn(C2OC(COP(=O)(O)O)C(O)C2O)c(=O)n1 (stereo not drawn)", "0 (no)"),
    ("O=C(/C=C/c1c(O)ccc2ccccc12)c1ccc2ccccc2c1", "0 (no)"),
    ("COc1cc(-c2nnc3n2NC=C(C(=O)O)S3)cc(OC)c1OC", "0 (no)"),
    ("Cc1c(O)c(OC2OC(CO)C(O)C(O)C2O)cc2c1C=C[C@@H]1[C@@]2(C)C(=O)C[C@]2(C)[C@@H]([C@@](C)(O)C(=O)CCC(C)(C)O)[C@H](O)C[C@@]12C (stereo partly drawn)", "0 (no)"),
    ("Oc1cc(O)c2c(c1)O[C@H](c1cc(O)c(O)c(O)c1)[C@@H](O)C2 [GALLOCATECHIN]", "0 (no)"),
    ("CN1CNc2nc(N)n(C)c(=O)c2C1", "0 (no)"),
    ("COc1ccc(-c2c(-c3ccccc3)c(C)nc3nc(SC)nc(SC)c23)cc1OC", "0 (no)"),
    ("CC(C)C(Nc1c2ccccc2nc2ccccc12)C(=O)O (stereo not drawn)", "0 (no)"),
    ("ClCc1nc2cc(Cl)ccc2o1", "0 (no)"),
    ("O=C(/C=C(\\O)C(=O)O)/C=C(\\O)c1ccccc1Cl", "0 (no)"),
    ("N#Cc1nc(C2SCCCS2)oc1N", "1 (yes)"),
    ("O=C(NCCSSCCNC(=O)/C(Cc1ccc(O)c(Br)c1)=N/O)/C(Cc1ccc(O)c(Br)c1)=N/O [PSAMMAPLIN A]", "1 (yes)"),
    ("COc1cc2c(c(OC)c1OC)C(=O)CC2N (stereo not drawn)", "0 (no)"),
    ("Nc1nn2c(=O)c3ccccc3nc2s1", "0 (no)"),
    ("C/C=C/c1cc2c(cc1O)CC[C@@H]1[C@@H]2CC[C@]2(C)[C@@H](O)CC[C@@H]12", "1 (yes)"),
    ("O=C1CC(Cl)c2c(Cl)sc(Cl)c21 (stereo not drawn)", "0 (no)"),
    ("Oc1c(Cl)c(Cl)c(O)c(CCNc2nccs2)c1Cl", "0 (no)"),
    ("Cc1ccc(Oc2ccc([N+](=O)[O-])cc2[N+](=O)[O-])c(C)c1", "0 (no)"),
    ("C1CNOCCCONCCCNOCCCONC1", "0 (no)"),
    ("CN(C)CCSCCO", "0 (no)"),
    ("Nc1cc2c3c(cccc3c1)C(=O)N(CCN1CCN(CCN3C(=O)c4cccc5cc(N)cc(c45)C3=O)CC1)C2=O", "0 (no)"),
    ("O=C(O)CSC(CC(=O)c1ccc(Cl)cc1)c1ccc(Cl)cc1 (stereo not drawn)", "0 (no)"),
    ("O=c1[nH]c(=S)c2cc3c(=S)[nH]c(=O)n(CCC(c4ccccc4)(c4ccccc4)c4ccccc4)c3nc2n1CCC(c1ccccc1)(c1ccccc1)c1ccccc1", "0 (no)"),
]

====

For reference, GI50 measured on HCT-15:
property: GI50

# molecule, measured-result
records = [
    ("CC1OC(NCCNCCNC2OC(C)C(O)C(O)C2O)C(O)C(O)C1O (stereo not drawn)", "> 100 µM"),
    ("COCn1cc(C2=C(C)C(=O)C(C)=C(C)C2=O)cn1", "> 100 µM"),
    ("CC[N+]1(C)CCC(O)(/C=C/c2ccccc2)C(C(=O)/C=C/c2ccccc2)C1 (stereo not drawn)", "4.54 µM"),
    ("C1CNOCCCONCCCNOCCCONC1", "> 100 µM"),
    ("Cc1ccc(C)c(NC(=O)CC2SC(Nc3ccccc3Cl)=NC2=O)c1 (stereo not drawn)", "> 100 µM"),
    ("O=C(Nc1ccc(Nc2ccc3c(c2)C(=O)c2ccccc2C3=O)c2c1C(=O)c1ccccc1C2=O)c1ccccc1", "7.62 µM"),
    ("CC(=O)NC(CCCNC(=O)OCc1ccccc1)C(=O)O (stereo not drawn)", "> 100 µM"),
    ("ClCc1nc2cc(Cl)ccc2o1", "3.39 µM"),
    ("Cc1cc(S(=O)(=O)Nc2nc(N)n(C)n2)c(S)cc1Cl", "> 10 µM"),
    ("O=C1CNc2cc(N3CCN(c4ccccc4)CC3)ccc2N1", "> 100 µM"),
    ("Cc1ccc(C2SC(=N)Nc3c2c(C)nn3C(=O)c2ccncc2)cc1 (stereo not drawn)", "> 10 µM"),
    ("O=c1[nH]c2ccccc2n1CCCN1CCC(n2c(=O)[nH]c3cc(Cl)ccc32)CC1", "18.7 µM"),
    ("Cn1cnc(S[C@H]2[C@H]3C(=O)C=C4S[C@H]5C[C@]42C2=C(N5)C(=O)c4[nH]cc5c4C2=[N+]3CC5)c1C[C@H](N)C(=O)O", "30.8 µM"),
]

src = ChEMBL document CHEMBL1201862
